system: U2OS; assay: Multiplex assay against U2OS; type: toxicity, cell-based; details: human, 24 h, 10 µM, compound concentration 10 uM, replicate 1
# label = 1.0 if Population Fragmented Nuclei (%) < 20% else 0.0

Exercise: Does COc1ccc(NS(=O)(=O)c2sc3ccc(Cl)cc3c2C)cc1N1CCNCC1.Cl have Population Fragmented Nuclei (%) strictly under 20%?
Key: 1.0

Exercise: Does CCOc1cc(N2CCC(O)CC2)ccc1Nc1ncc2c(n1)N(C1CCCC1)CCC(=O)N2C have Population Fragmented Nuclei (%) strictly under 20%?
Key: 1.0

Exercise: Does CC(C)N1CCC(C)(C)c2cc(C#Cc3ccc(C(=O)O)cc3)ccc21 have Population Fragmented Nuclei (%) strictly under 20%?
Key: 0.0

Exercise: Does Nc1ccc(C(=O)Nc2cccc(-c3nc(N4CCOCC4)c4oc5ncccc5c4n3)c2)cn1 have Population Fragmented Nuclei (%) strictly under 20%?
Key: 0.0

Now turn to the next compound.
Exercise: Does CCn1c(-c2nonc2N)nc2cnc(Oc3cccc(NC(=O)c4ccc(OCCN5CCOCC5)cc4)c3)cc21 [GSK-269962A] have Population Fragmented Nuclei (%) strictly under 20%?
Key: 1.0
